Assay: Mouse blood levels after oral administration (disc diffusion bioassay, Bacillus subtilis)
Details: in vivo, 100 mg/kg
Property: concentration at 0.25 h (ng/mL)
Please reply with the bare figure in ng/mL and do not write the unit itself.

Name the recorded concentration at 0.25 h for CC1(C)S[C@@H]2[C@H](NC(=O)[C@H](N)c3ccccc3)C(=O)N2[C@H]1C(=O)O .
3500

Now try CC1(C)S[C@@H]2[C@H](NC(=O)[C@H](N)c3ccc(O)cc3)C(=O)N2[C@H]1C(=O)O .
9500

====

Assay: Mouse blood levels after oral administration (disc diffusion bioassay, Bacillus subtilis)
Details: in vivo, 100 mg/kg
Please respond with reported concentration at 1 h for every item in the list.
Please respond with the number in ng/mL and leave the unit unwritten.

Look up concentration at 1 h for this molecule: CC1(C)S[C@@H]2[C@H](NC(=O)[C@H](N)c3ccc(O)cc3)C(=O)N2[C@H]1C(=O)O
14200

Same question for CC1(C)S[C@@H]2[C@H](NC(=O)[C@H](N)c3ccccc3)C(=O)N2[C@H]1C(=O)O please.
6800

====

Experiment: Mouse blood levels after oral administration (disc diffusion bioassay, Bacillus subtilis)
Conditions: in vivo, 100 mg/kg
Property: concentration at 1.5 h

Which measured concentration at 1.5 h value corresponds to CC1(C)S[C@@H]2[C@H](NC(=O)[C@H](N)c3ccccc3)C(=O)N2[C@H]1C(=O)O ?
4300 ng/mL

Same lookup for CC1(C)S[C@@H]2[C@H](NC(=O)[C@H](N)c3ccc(O)cc3)C(=O)N2[C@H]1C(=O)O , please.
8700 ng/mL

====

Assay: Mouse blood levels after oral administration (disc diffusion bioassay, Bacillus subtilis)
Conditions: in vivo, 100 mg/kg
Kindly supply the reported concentration at 2 h values for the records listed here.
Your answer is read as ng/mL, so omit the unit and give the number.

Query (compound): CC1(C)S[C@@H]2[C@H](NC(=O)[C@H](N)c3ccc(O)cc3)C(=O)N2[C@H]1C(=O)O [Amoxicillin, amoxicillin] ; field requested: concentration at 2 h
6300

Queued: CC1(C)S[C@@H]2[C@H](NC(=O)[C@H](N)c3ccccc3)C(=O)N2[C@H]1C(=O)O [Ampicillin, ampicillin]
2500
